- target or system: T1, Tfam Y162A (Homo sapiens, UniProt Q00059 43-246, Y162A)
- T1 sequence: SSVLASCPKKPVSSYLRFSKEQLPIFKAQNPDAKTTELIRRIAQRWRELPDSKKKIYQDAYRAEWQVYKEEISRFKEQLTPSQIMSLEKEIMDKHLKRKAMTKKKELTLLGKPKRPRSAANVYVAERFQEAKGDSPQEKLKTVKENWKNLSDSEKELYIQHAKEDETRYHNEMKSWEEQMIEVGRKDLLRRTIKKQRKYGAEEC
- protocol summary: intrinsic Trp fluorescence quenching
reported endpoint: pKd
Keep in mind that pKd stands for -log10 of concentration in molar terms.

# get_value(readout='pKd', item= LSP 28 bp (dsDNA) DNA 1: TGTTAGTTGGGGGGTGACTGTTAAAAGT DNA 2: ACTTTTAACAGTCACCCCCCAACTAACA )
7.91

Values from paper PMC3210390
